All values here come from patent US20240376094A2.

system.under.test: Bcl-xL (Homo sapiens, UniProt Q07817)
Construct: Measured levels of Bcl-xL protein of HCT116 cells treated with the tested compounds; host or cells: HCT116
Sequence (Q07817 whole entry): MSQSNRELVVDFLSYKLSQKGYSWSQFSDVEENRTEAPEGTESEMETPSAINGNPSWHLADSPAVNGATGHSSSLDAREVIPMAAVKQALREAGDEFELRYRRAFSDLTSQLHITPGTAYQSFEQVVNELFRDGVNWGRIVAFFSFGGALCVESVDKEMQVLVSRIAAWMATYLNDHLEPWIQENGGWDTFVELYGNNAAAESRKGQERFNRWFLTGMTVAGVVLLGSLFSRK
assay.protocol: HCT116 Bcl-xL degradation, capillary-based immunoassay (WES)
Assay type: cell-based
reported.conditions: HCT116, 24 h, 9-point serial dilution
Readings of DC50 for the listed molecules
# unit: nM | format: bare number

>>> measurement("Cc1ncsc1-c1ccc([C@H](C)NC(=O)[C@@H]2C[C@@H](O)CN2C(=O)[C@@H](NC(=O)CCCCCCCCCNC(=O)c2nc(N3CCCc4c3nnc(Nc3nc5ccccc5s3)c4C)ccc2-c2cnn(CC34CC5(C)CC(C)(C3)CC(OCCN3CCCC3)(C5)C4)c2C)C(C)(C)C)cc1")
0.857

Now examine the next entry.
Qu. Recorded DC50 of `Cc1ncsc1-c1ccc(CNC(=O)[C@@H]2C[C@@H](O)CN2C(=O)[C@@H](NC(=O)C2(F)CC2)C(C)(C)SCCCCCCCCCCCCCCN(C)CCOC23CC4(C)CC(C)(CC(Cn5ncc(-c6ccc(N7CCCc8c7nnc(Nc7nc9ccccc9s7)c8C)nc6C(=O)O)c5C)(C4)C2)C3)cc1` , please.
Ans. 3.57

====

Tested on: MOLT-4 cells
assay.protocol: MOLT-4 cell viability, MTT assay
Type: cell-based
reported.conditions: Homo sapiens, MOLT-4, 48 h
measure.name: pIC50
In plain terms, pIC50 is the concentration in mol/L turned into minus its base-10 logarithm.

Previously resolved entries follow.
>>> measurement("Cc1cc(N(C)c2nc(C(=O)O)c(CCCOc3ccc(C#CCN(C)CC(=O)NCCOCCNC(=O)COc4cccc5c4C(=O)N(C4CCC(=O)NC4=O)C5=O)cc3F)s2)nnc1Nc1nc2ccccc2s1 (stereo not shown)")
7.19
>>> measurement("Cc1cc(N(CCCCNC(=O)CCOCCOCCOCCOCCNc2cccc3c2C(=O)N(C2CCC(=O)NC2=O)C3=O)c2nc(C(=O)O)c(CCCOc3ccc(C#CCN(C)C)cc3F)s2)nnc1Nc1nc2ccccc2s1 (stereo not shown)")
6.45
>>> measurement("Cc1ncsc1-c1ccc([C@H](C)NC(=O)[C@@H]2C[C@@H](O)CN2C(=O)[C@@H](NC(=O)CCCCCCCCN(C)CCOC23CC4(C)CC(C)(CC(Cn5ncc(-c6ccc(N7CCCc8c7nnc(Nc7nc9ccccc9s7)c8C)nc6C(=O)O)c5C)(C4)C2)C3)C(C)(C)C)cc1")
8.45

Now examine the next entry.
Qu. // map Cc1ncsc1-c1ccc(CNC(=O)C2C[C@@H](O)CN2C(=O)C(NC(=O)CCCCCC(=O)N2CCN(CC#Cc3ccc(OCCCc4sc(N5CCCc6c5nnc(Nc5nc7ccccc7s5)c6C)nc4C(=O)O)c(F)c3)CC2)C(C)(C)C)cc1 (stereo in doubt) to recorded pIC50 (system: MOLT-4 cells)
Ans. 8.25

====

system.under.test: Bcl-xL (Homo sapiens, UniProt Q07817)
Construct: Measured levels of Bcl-xL protein of HCT116 cells treated with the tested compounds; host or cells: HCT116
assay.protocol: HCT116 Bcl-xL degradation, capillary-based immunoassay (WES)
Format: cell-based
reported.conditions: HCT116, 24 h, 9-point serial dilution
Readings of DC50 for the listed compounds
# unit: nM | format: bare number

>>> measurement("Cc1cc(N(CCCCN(C)C(=O)CCCCCCCCCCCNc2cccc3c2C(=O)N(C2CCC(=O)NC2=O)C3=O)c2ccc(-c3cnn(CC45CC6(C)CC(C)(C4)CC(OCCN(C)C)(C6)C5)c3C)c(C(=O)O)n2)nnc1Nc1nc2ccccc2s1 (stereo not shown)")
0.951

Now examine the next entry.
Qu. // map `Cc1ncsc1-c1ccc(CNC(=O)[C@@H]2C[C@@H](O)CN2C(=O)[C@@H](NC(=O)C2(F)CC2)C(C)(C)C)c(OCCCCCCCCCCN(C)CCOC23CC4(C)CC(C)(CC(Cn5ncc(-c6ccc(N7CCCc8c7nnc(Nc7nc9ccccc9s7)c8C)nc6C(=O)O)c5C)(C4)C2)C3)c1` to recorded DC50 (system: Bcl-xL (Homo sapiens, UniProt Q07817))
Ans. 7.69

====

Readings of DC50 for the listed compounds
system.under.test: HiBiT-tagged BCL-xL (Homo sapiens, UniProt Q07817)
Construct: expressed in transfected cells; host or cells: NCI-H1650 (ATCC No. CRL-5883), engineered HiBiT cell line
assay.protocol: NCI-H1650 BCL-xL protein levels, Nano-Glo HiBiT Lytic Detection
Type: cell-based
reported.conditions: NCI-H1650 expressing HiBiT-tagged BCL-xL, overnight incubation, read-out: Bcl-xl HIBIT NCIH1650 DC50

Previously resolved entries follow.
>>> measurement("Cc1ncsc1-c1ccc([C@H](C)NC(=O)[C@@H]2C[C@@H](O)CN2C(=O)[C@@H](NC(=O)CC23CC4CC(C2)CC(CC(=O)N2CCN(CC#Cc5ccc(OCCCc6sc(N7CCCc8c7nnc(Nc7nc9ccccc9s7)c8C)nc6C(=O)O)c(F)c5)CC2)(C4)C3)C(C)(C)C)cc1")
"> 1.67 µM"
>>> measurement("Cc1ncsc1-c1ccc([C@H](C)NC(=O)[C@@H]2C[C@@H](O)CN2C(=O)[C@@H](NC(=O)C2CCN(C(=O)CCCCCCCCCN(C)CCOC34CC5(C)CC(C)(CC(Cn6ncc(-c7ccc(N8CCCc9c8nnc(Nc8nc%10ccccc%10s8)c9C)nc7C(=O)O)c6C)(C5)C3)C4)CC2)C(C)(C)C)cc1")
"> 1.67 µM"
>>> measurement("Cc1ncsc1-c1ccc([C@H](C)NC(=O)C2CC(O)CN2C(=O)C(NC(=O)CCCCCCCCCCCN2CCN(CC#Cc3ccc(OCCCc4sc(N5CCCc6c5nnc(Nc5nc7ccccc7s5)c6C)nc4C(=O)O)c(F)c3)CC2)C(C)(C)C)cc1 (stereo in doubt)")
"0.0004 µM"

Now examine the next entry.
Qu. Recorded DC50 of `Cc1ncsc1-c1ccc([C@H](C)NC(=O)[C@@H]2C[C@@H](O)CN2C(=O)[C@@H](NC(=O)COCCOCCOCCN(C)CCOC23CC4(C)CC(C)(CC(Cn5ncc(-c6ccc(N7CCCc8c7nnc(Nc7nc9ccccc9s7)c8C)nc6C(=O)O)c5C)(C4)C2)C3)C(C)(C)C)cc1` , please.
Ans. > 1.67 µM

====

system.under.test: Bcl-xL (Homo sapiens)
Construct: Measured levels of Bcl-xL protein of HCT116 cells treated with the tested compounds; host or cells: HCT116
assay.protocol: HCT116 Bcl-xL degradation, capillary-based immunoassay (WES)
Type: cell-based
reported.conditions: HCT-116; HCT116, 100 nM, 24 h; % of untreated cells
measure.name: remaining activity at 0.1 µM (%)
# unit: % | format: bare number

Previously resolved entries follow.
>>> measurement("Cc1c(Nc2nc3ccccc3s2)nnc2c1CCCN2c1ccc(-c2cnn(CC34CC5(C)CC(C)(C3)CC(OCCN(C)CCOCCOCCNc3cccc6c3C(=O)N(C3CCC(=O)NC3=O)C6=O)(C5)C4)c2C)c(C(=O)O)n1 (centres unmarked) [Example 12]")
69
>>> measurement("Cc1ncsc1-c1ccc(CNC(=O)[C@@H]2CC(O)CN2C(=O)C(NC(=O)CCCCC(=O)N2CCN(CCOC34CC5(C)CC(C)(CC(Cn6ncc(-c7ccc(N8CCCc9c8nnc(Nc8nc%10ccccc%10s8)c9C)nc7C(=O)O)c6C)(C5)C3)C4)CC2)C(C)(C)C)cc1 (stereo in doubt) [Example 23]")
67
>>> measurement("Cc1c(Nc2nc3ccccc3s2)nnc2c1CCCN2c1nc(C(=O)O)c(CCCOc2ccc(C#CCN3CCN(C(=O)CCCCCCC(=O)NCCOCCNC(=O)COc4cccc5c4C(=O)N(C4CCC(=O)NC4=O)C5=O)CC3)cc2F)s1 (centres unmarked) [Example 25]")
55
>>> measurement("Cc1cc(N(CCCCCn2cc(COCCOCCOCC(=O)Nc3cccc4c3CN(C3CCC(=O)NC3=O)C4=O)nn2)c2ccc(-c3cnn(CC45CC6(C)CC(C)(C4)CC(OCCN(C)C)(C6)C5)c3C)c(C(=O)O)n2)nnc1Nc1nc2ccccc2s1 (centres unmarked) [Example 28]")
46
>>> measurement("Cc1ncsc1-c1ccc([C@H](C)NC(=O)C2CC(O)CN2C(=O)C(NC(=O)CCCCCCCCCCCN2CCN(CC#Cc3ccc(OCCCc4sc(N5CCCc6c5nnc(Nc5nc7ccccc7s5)c6C)nc4C(=O)O)c(F)c3)CC2)C(C)(C)C)cc1 (stereo in doubt) [Example 31]")
6

Qu. Recorded remaining activity at 0.1 µM of CNCC#Cc1ccc(OCCCc2sc(N(CCCc3cn(CCCCCCCCNC(=O)COc4cccc5c4C(=O)N(C4CCC(=O)NC4=O)C5=O)nn3)c3cc(C)c(Nc4nc5ccccc5s4)nn3)nc2C(=O)O)c(F)c1 (centres unmarked) [Example 30] , please.
Ans. 73

Qu. Recorded remaining activity at 0.1 µM of Cc1ncsc1-c1ccc([C@H](C)NC(=O)[C@@H]2C[C@@H](O)CN2C(=O)[C@@H](NC(=O)CCCCCCCCCCCN(C)CCOC23CC4(C)CC(C)(CC(Cn5ncc(-c6ccc(N7CCCc8c7nnc(Nc7nc9ccccc9s7)c8C)nc6C(=O)O)c5C)(C4)C2)C3)C(C)(C)C)cc1 [Example 2] , please.
Ans. 11

Qu. Recorded remaining activity at 0.1 µM of Cc1cc(N(CCCCCn2cc(COCCOCCOCCNC(=O)COc3cccc4c3C(=O)N(C3CCC(=O)NC3=O)C4=O)nn2)c2ccc(-c3cnn(CC45CC6(C)CC(C)(C4)CC(OCCN(C)C)(C6)C5)c3C)c(C(=O)O)n2)nnc1Nc1nc2ccccc2s1 (centres unmarked) [Example 63] , please.
Ans. 39
